target: pooled human IgG (human IgG1, 2, 3 and 4)
VALUE_TYPE: Enzyme Activity Endpoint Assay: scIgG (ng/µL)
Give bare numbers, in ng/µL.

Task: Give me measured Enzyme Activity Endpoint Assay: scIgG, please, for this protein: PRT-534 (protein) MANQEIRYSSDSEWANKKVWVYGITPPEEGAWKYSTYYLPWKKEYGWYDCNKRNPTADGMMCWAATASNLLHWWIAQNKEYIDLYGDKYKGPDKINFNGEQMFDVKEYIDPLDKPQESDIFQCFIDKSFADLSTKHEAGYGDAGINWFIHGIIPSSPAHGPTPVKLDYPYNPAGYFKDVFPRGDGVVLLGNNGDFKELSKERFNETIKDALKNKKAIGLSIGPVNVRSSHVVTIWGAEFDENGDVSYIYMADNNDNWGVGCIRYQIVYEEGGTYTCYKTEIIPSDRPIPINRLVTLELGEEYWKQTNLEHHHHHH
Result: 0
